IC50 overview
target: Potassium-transporting ATPase (Sus scrofa); assay: Activity was evaluated by measuring the inhibition of isolated hog H+/K+ ATPase
Sequence (P18434 whole entry): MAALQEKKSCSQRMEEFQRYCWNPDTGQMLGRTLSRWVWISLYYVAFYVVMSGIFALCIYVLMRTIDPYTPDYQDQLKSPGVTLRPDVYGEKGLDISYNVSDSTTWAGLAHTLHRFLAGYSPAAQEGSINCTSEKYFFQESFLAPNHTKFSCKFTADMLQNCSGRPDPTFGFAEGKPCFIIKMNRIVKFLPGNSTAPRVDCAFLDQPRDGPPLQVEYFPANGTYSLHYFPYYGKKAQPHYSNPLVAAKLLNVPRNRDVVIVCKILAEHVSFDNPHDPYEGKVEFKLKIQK
Sequence (P19156 whole entry): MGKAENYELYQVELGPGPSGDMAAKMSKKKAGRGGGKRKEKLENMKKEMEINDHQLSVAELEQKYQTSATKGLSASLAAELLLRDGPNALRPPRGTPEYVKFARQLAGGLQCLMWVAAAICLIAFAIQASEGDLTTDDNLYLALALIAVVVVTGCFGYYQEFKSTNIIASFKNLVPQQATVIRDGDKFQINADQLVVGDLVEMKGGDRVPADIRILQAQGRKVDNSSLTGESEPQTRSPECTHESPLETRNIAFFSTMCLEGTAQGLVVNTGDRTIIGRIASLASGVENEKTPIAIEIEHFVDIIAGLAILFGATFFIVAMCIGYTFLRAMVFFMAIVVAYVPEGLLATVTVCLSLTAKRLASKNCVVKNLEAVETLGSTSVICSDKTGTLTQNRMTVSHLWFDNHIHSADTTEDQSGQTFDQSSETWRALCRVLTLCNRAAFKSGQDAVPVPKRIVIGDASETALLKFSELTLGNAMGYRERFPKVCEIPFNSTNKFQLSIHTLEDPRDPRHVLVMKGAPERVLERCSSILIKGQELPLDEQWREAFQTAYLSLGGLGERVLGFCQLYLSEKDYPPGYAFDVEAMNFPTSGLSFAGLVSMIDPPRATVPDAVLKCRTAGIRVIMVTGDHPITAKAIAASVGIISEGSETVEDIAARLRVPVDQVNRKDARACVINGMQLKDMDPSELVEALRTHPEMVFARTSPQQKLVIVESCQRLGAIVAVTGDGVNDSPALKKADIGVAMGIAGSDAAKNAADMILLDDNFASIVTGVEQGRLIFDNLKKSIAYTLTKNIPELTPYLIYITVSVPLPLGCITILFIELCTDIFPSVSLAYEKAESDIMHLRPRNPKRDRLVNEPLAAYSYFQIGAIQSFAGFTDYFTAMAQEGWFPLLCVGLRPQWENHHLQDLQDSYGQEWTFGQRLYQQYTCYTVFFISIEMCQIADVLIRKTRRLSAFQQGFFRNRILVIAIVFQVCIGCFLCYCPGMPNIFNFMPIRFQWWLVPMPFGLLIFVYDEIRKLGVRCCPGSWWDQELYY
All answers are understood in µM, so give the number only.

Reference set (3 entries):
CCSc1ccnc(C[S+]([O-])c2nc3ccccc3n2CCN2CCCCC2)c1C (centres undefined)    30
CCSc1ccnc(C[S+]([O-])c2nc3ccccc3n2C(=O)OCC(C)C)c1C (centres undefined)    5
CCOCCn1c([S+]([O-])Cc2nccc(SCC)c2C)nc2ccccc21 (centres undefined)    1000

Here is the next item to consider.
Entry CCOC(C)n1c([S+]([O-])Cc2ncc(C)c(OC)c2C)nc2ccccc21 (centres undefined) — recorded IC50 = 1500
